Hello, the source for this data is patent US20240067751A1, in case you need it.

Would you mind telling me the reported EC50 of each entry?
# subject_of_test: T1, human MASP-2 D4-6 recombinant protein (human, UniProt O00187 298-686)
# T1 construct: his6 tag fused at the N-terminus, made in HEK293E; also called enzymatic activity domains CCP1-CCP2-SP of human MASP-2
# protocol_text: ELISA, antigen coated, chimeric IgG titrated, anti-human Fc-HRP
Respond numerically; units are nM and should not be typed.

The binder listed as chimeric antibody 1B2 (antibody, V domains shown) VH: DVQLQESGPGLVKPSQSLSLTCTVTGYSITSDYAWNWIRQFSGDKLEWMGYISYSGSTSYNPSLKSRISITRDTSKNQFFLHLSSVTTEDTATYFCARYWGDYWGHGTTLTVSS VL: DSVMTQSQKFMSTSVGDRVSVTCKASHNVGTNVAWFQQKPGQSPKGLIYSASYRSSGVPDRFTGSGSGTDFTLTISNVQSEDLAEYFCLQYNSNPLTFGGGTKLEVK has a reported EC50 of 0.015

Record summary for chimeric antibody 10L3 (antibody, V domains shown) VH: DVQLQESGPGLVKPSQSLSLTCTVTGYSITSDYAWNWIRQFPGNKLEWMGYISYSGRTSYNPSLKSRISITRDTSKNQFFLQLNSVTTEDTATYYCAKLGGGHGMDYWGQGTSVTVSS VL: IVMTQSQKFMSTSVGDRVSVTCKASQNVDTNVAWYQQKPGQSPKALIYSASYRYSGVPDRFTGSGSGTDFTLTISNVQSEDLAEYFCLQYNSYLTFGSGTKLELK : reported EC50 = 0.022

Looking up chimeric antibody 4F18 (antibody, V domains shown, to be rechecked) VH: EVQLQESGPGLVKPSQSLSLACTVTGYSITSDYAWHWIRQFPGNKLEWMGFISYSGRTNYNPPLTSRISITRDTSKNQFFLQLNSVTTEDTATYYCARSYDYWFGYWGQGTLVTVSA VL: NVLMTQTPLSLPVSLGDQASISCRSSQSLVHSNGNTYLEWYMQKPGQSPKLLIYTVSRRFSGVPDRFSGSGSGTDFTLKISRVEAEDLGVYYCFQGSHVPVTFGAGTKLELK , I found its EC50 recorded as 0.004

Reported EC50 ( chimeric antibody 3B9 (antibody, V domains shown) VH: DVQLQESGPGLVRPSQSLSLTCTVTGYSITSDYAWNWIRQFPGNKLEWMGYISYSGRTSYNPSLKSRLSITRDTSKNQFFLQLNSVSSADTATYYCAIISTAVDFDYWGQGTTLTVSS VL: QTVLTQSPAIMSASLGERVTMTCTASSSVSSSYLLWYQQKPGSSPKLWIYSTSKLASGVPVRFSGSGSGTSYSLTISSMEADDAATYYCLQYNRSPLTFGAGTKLELK ) = 0.025

Short answer for chimeric antibody 16A17 (antibody, V domains shown) VH: DVQLQESGPGLVKPSQSLSLTCTVTGYSITSDYAWKWIRQFPGNKLEWMGYISYSGSTSYHPSLKGRISITRDTSKNQFFLQLNSVTADDTATYYCAILGYYAMDYWGQGTSVTVSS VL: DIVMTQSQKFMSTSVGDRVSITCKASQNVRVDVAWYQQKSGQSPRALIYLASNRHTGVPDRFTGSGSGTDFTLTITNVQSEDLADYFCPQHWSYPLTFGGGTKLEIK : EC50 was 0.014

Lab note: measured EC50 of chimeric antibody 28O14 (antibody, V domains shown) VH: QVQLQQSGTELARPGASVRMSCKASGYTFRSHTMHWVKQRPGQGLEWIGYINPSTGYINYNQKFKDKATLTADKSSSTAYMQLSSLTSEDSAVYYCARSNYSYYYGMDYWGQGTSVTVSS VL: DIVMTQSHKFMSTSVGDRVTITCKASQDVNTAVAWYQQKPGQSPKLLIYSASYRYTGVPDRFTGSGSGTDFTFTISSLQAEDLAVYYCQQHYNIPLTFGAGTKLELK was 0.033

// sample chimeric antibody 25L15 (antibody, V domains shown) VH: KVKLVESGGDLVKPGGSLKISCAASGFTFSNYAMSWIRQTPDKRLEWVATVSSGGPYTYYPDSVKGRFTISRDNAENTLYLQMSSLRSDDTAIYYCARQIYSDYDVTYWGQGTLVTVSA VL: QIVLSQSPAILSASPGETVTMTCRVSSSVSYMYWLQQKPGSSPKPWIYATSNLASGVPARFSGSGSGTSYSLTITRVEAEDAATYYCQQWSFRPWTFGGGTKLEIK , its EC50 was 0.012
